B1: DLC1 (parent)
chain: HVTHWMGQPFNSDDRNTACHHGLV

- Variants of: B1
- assay_name: protein stability index of a GFP-peptide fusion (GPS, HEK-293T) (PSI 1-6); higher = more stable;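 note: lentivirally expressed fusions sorted by FACS into six bins by GFP to DsRed ratio, PSI derived from sequencing read proportions per bin multiplied by bin number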
- test_conditions: c terminus: a fixed tail appended
Give protein stability index for every item shown.
Provide a numeric answer; units are not to be included.

Query block: State the recorded protein stability index for this entry: `S12Q`
Result block: 1.98

Query block: Form field: reported protein stability index of `H21C`
Result block: 2.69

Query block: Find the recorded protein stability index belonging to `L23E` and report it.
Result block: 2.75
